Dissociation amount (RU) values for the binders below.
- targetOfAssay: T1, human FSTL1 (construct not stated) (human, UniProt Q12841 21-308)
- T1 construct: also called human FSTL1 antigen; FSTL1 (R&D Systems, Inc. Cat#1694-FN-050)
- T1 sequence: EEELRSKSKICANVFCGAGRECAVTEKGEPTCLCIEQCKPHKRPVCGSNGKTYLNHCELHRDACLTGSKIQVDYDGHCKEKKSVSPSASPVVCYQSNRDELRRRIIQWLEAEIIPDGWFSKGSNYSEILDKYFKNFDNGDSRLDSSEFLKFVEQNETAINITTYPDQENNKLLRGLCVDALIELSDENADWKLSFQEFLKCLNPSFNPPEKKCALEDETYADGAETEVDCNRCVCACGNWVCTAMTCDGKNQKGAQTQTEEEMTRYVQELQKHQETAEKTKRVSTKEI
- protocolSummary: SPR (Biacore T-200), captured antibody, human FSTL1 10 µg/ml; note: time not given here
Just the number in RU, nothing appended.

binder	measuredNumber
anti-FSTL1 antibody clone #8-7 (chicken-mouse chimeric antibody) (antibody, mouse IgG1, kappa, V domains shown) VH: AVTLDESGGGLQTPGGGLSLVCKGSGFTFSSFNMFWVRQAPGKGLEWVAGIGKDGVPKYGAAVDGRATISKDNGQSTLRLQLNNLRAEDTGTYFCAKAAGGCSYDWCGIYAGDIDTWGHGTEVIVSS VL: ASTQPSSVSANPGEAVKITCSGGSGSYYGWYQQKSPGSAPVTVIYNNNQRPSDIPSRFSGSKSGSTATLTITGVQAEDEAVYFCGGYDSSTGHGGIFGAGTTLTVLG	11.8

Please find the next binder below.
## Task Dissociation amount (RU) lookup needed for anti-FSTL1 antibody clone #13 (chicken-mouse chimeric antibody) (antibody, mouse IgG1, kappa, V domains shown) VH: AVTLDESGGGLQTPGGGLSLVCKASGFTFSSVTMQWVRQAPGKGLEWVASICSGSSTYYGPAVKGRATISRDNGQNTVRLQLNNLRAEDTATYYCAKIVGRGRWSCTSAAYNIDAWGHGTEVIVSS VL: ASTQPSSVSANPGETVKITCSGGGNNYGWYQQKSPGSAPVTVIYNNNNRPSNIPSRFSGSKSGSTNTLTITGVQAEDEAVYYCGSYDSSSDSGIFGAGTTLTVLG , thanks.
## Result 0.2
